# system tested: HDAC2 (Homo sapiens)
# Construct: host or cells: SH-SY5Y cells
# Sequence (Q92769 whole entry): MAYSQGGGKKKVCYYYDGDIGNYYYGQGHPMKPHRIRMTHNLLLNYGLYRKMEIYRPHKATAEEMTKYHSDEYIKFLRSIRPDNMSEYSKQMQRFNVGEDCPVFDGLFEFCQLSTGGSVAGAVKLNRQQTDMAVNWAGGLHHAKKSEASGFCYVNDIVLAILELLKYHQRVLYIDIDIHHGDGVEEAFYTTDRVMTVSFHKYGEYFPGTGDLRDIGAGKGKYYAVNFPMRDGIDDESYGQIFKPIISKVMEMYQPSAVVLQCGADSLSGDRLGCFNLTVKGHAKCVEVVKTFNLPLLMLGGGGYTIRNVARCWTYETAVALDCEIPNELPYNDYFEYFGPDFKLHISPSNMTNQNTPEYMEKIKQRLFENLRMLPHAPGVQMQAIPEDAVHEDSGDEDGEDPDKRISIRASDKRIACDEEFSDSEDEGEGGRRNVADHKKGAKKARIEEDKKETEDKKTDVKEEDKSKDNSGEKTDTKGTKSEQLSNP
# assay text: HDAC2 enzymatic inhibition assay in SH-SY5Y cell lysate with an exogenous substrate (HDAC-Glo 2)
# Assay type: cell-based
# reported conditions: SH-SY5Y cells, five hours incubation, HDAC-Glo 2 reagent; class symbols
pIC50: −log10 of the molar value.
value kind: pIC50

INSERT INTO results (compound, observed_measurement) VALUES
  ('COCc1cccc(C2CCN(C(=O)Nc3nc(-c4ccc(F)cc4F)ccc3N)C2)n1 (centres unmarked)', '< 5.70'),
  ('Nc1ccc(-c2ccc(F)cc2F)nc1NC(=O)N1CCC(c2ncc(F)cn2)C1 (single isomer, unassigned) [Compound 14E2]', '< 5.70'),
  ('Nc1ccc(-c2ccc(F)cc2)nc1NC(=O)N1CCC(c2ncccn2)C1 (centres unmarked) [Compound 19]', '> 6.30'),
  ('Nc1ccc(-c2ccc(F)cc2)nc1NC(=O)N1CCC(c2ncccn2)C1 (single isomer, unassigned) [Compound 19E2]', '6.00 to 6.30'),
  ('Cc1ccc(C2CCN(C(=O)Nc3nc(-c4ccc(F)cc4F)ccc3N)C2)cn1 (centres unmarked)', '< 5.70');

Prompt: What value of pIC50 has been reported for the following compound? Nc1ccc(-c2ccc(F)s2)nc1NC(=O)N1CCC(F)(c2ncccn2)C1 (centres unmarked)
Completion: 6.00 to 6.30

Prompt: What value of pIC50 has been reported for the following compound? Cc1cncc(C2CCN(C(=O)Nc3nc(-c4ccc(F)cc4F)ccc3N)C2)n1 (centres unmarked)
Completion: 5.70 to 6.00

Prompt: What value of pIC50 has been reported for the following compound? Nc1ccc(-c2ccc(F)cc2F)nc1NC(=O)N1CCC(c2ccccn2)C1 (centres unmarked)
Completion: < 5.70
